Below, each entry is listed alongside its reported relative IC50.
System: HS-PSS
Assay: relative IC50 (inflection point of fitted dose-response curve, CellTox-Green cytotoxicity, 72 h; top asymptote may be below 50%); higher = less potent
reported_endpoint: relative IC50

[[record]]
compound = "CC(C)[C@H]1C(=O)N[C@@H](CCCNC(=N)N)C(=O)NCC(=O)N[C@@H](CC(=O)O)C(=O)N[C@H](Cc2ccccc2)C(=O)N1C [Cilengitide]"
result = "> 10000 nM"

[[record]]
compound = "CCC/C=C/C=C/C(=O)O[C@H]1/C(=C/C(=O)OC)C[C@H]2C[C@H]([C@@H](C)O)OC(=O)C[C@H](O)C[C@@H]3C[C@H](OC(C)=O)C(C)(C)[C@](O)(C[C@@H]4C/C(=C/C(=O)OC)C[C@H](/C=C/C(C)(C)[C@]1(O)O2)O4)O3 [Bryostatin 1]"
result = "> 100 nM"

[[record]]
compound = "COc1cc(OC)c(/C=C/S(=O)(=O)Cc2ccc(OC)c(NCC(=O)O)c2)c(OC)c1 [Rigosertib]"
result = "> 10000 nM"

[[record]]
compound = "O=C(O)CNC(=O)c1c(O)c2ccccc2n(Cc2ccccc2)c1=O [IOX-2]"
result = "> 50000 nM"

[[record]]
compound = "COc1cc(N2CCC(N3CCN(C)CC3)CC2)ccc1Nc1ncnc(Nc2ccccc2S(=O)(=O)C(C)C)n1 [ASP3026]"
result = "> 10000 nM"

[[record]]
compound = "CS(=O)(=O)CCNCc1ccc(-c2ccc3ncnc(Nc4ccc(OCc5cccc(F)c5)c(Cl)c4)c3c2)o1 [Lapatinib]"
result = "> 1000 nM"

[[record]]
compound = "OC[C@H]1O[C@@H](n2cnc3c2N=CNC[C@H]3O)C[C@@H]1O [Pentostatin]"
result = "> 10000 nM"

[[record]]
compound = "O=C(Nc1cc(Cl)cc2c1[nH]c1cnccc12)c1cccnc1 [PS-1145]"
result = "> 25000 nM"

[[record]]
compound = "CC(C)C[C@H](NC(=O)[C@H](Cc1ccccc1)NC(=O)c1cnccn1)B(O)O [Bortezomib]"
result = "123 nM"

[[record]]
compound = "N#CCNC(=O)c1ccc(-c2ccnc(Nc3ccc(N4CCOCC4)cc3)n2)cc1 [Momelotinib]"
result = "> 10000 nM"

[[record]]
compound = "NS(=O)(=O)OC[C@@H]1C[C@@H](n2ccc3c(N[C@H]4CCc5ccccc54)ncnc32)C[C@@H]1O [Pevonedistat]"
result = "222 nM"

[[record]]
compound = "CCCNC(=O)Nc1ccc(Oc2ncnc3cc(OC)c(OC)cc23)cc1Cl [KRN-633]"
result = "> 2500 nM"

[[record]]
compound = "CC[C@@H]1C(=O)N(C)c2cnc(Nc3ccc(C(=O)N[C@H]4CC[C@H](N5CCN(CC6CC6)CC5)CC4)cc3OC)nc2N1C(C)C [Volasertib]"
result = "> 1000 nM"

[[record]]
compound = "CS(=O)(=O)c1ccc(C2=C(c3ccccc3)C(=O)OC2)cc1 [Rofecoxib]"
result = "> 10000 nM"

[[record]]
compound = "C[C@@H](Nc1cc(F)cc(F)c1)c1cc(C(=O)N(C)C)cc2c(=O)cc(N3CCOCC3)oc12 [AZD-8186]"
result = "> 1000 nM"

[[record]]
compound = "c1ccc(Cn2c(-c3ccc(OC[C@H](C4CCNCC4)n4c(-c5ccccc5)nc5ccccc54)cc3)nc3ccccc32)cc1 [deltarasin]"
result = "2470 nM"

